ASSAY REMARKS: Reducing power by Somogyi-Nelson's method expressed as DE
Type: physicochemical
REPORTED CONDITIONS: high-purity saccharide preparations of Experiment 4
DE for assorted compounds
The answer should be a number; do not append a unit.

OC[C@H]1O[C@H](O[C@H]2O[C@H](CO)[C@@H](O[C@H]3O[C@H](CO)[C@@H](O[C@H]4O[C@H](CO)[C@@H](O[C@H]5O[C@H](CO)[C@@H](O[C@H]6O[C@H](CO)[C@@H](O)[C@H](O)[C@H]6O)[C@H](O)[C@H]5O)[C@H](O)[C@H]4O)[C@H](O)[C@H]3O)[C@H](O)[C@H]2O)[C@H](O)[C@@H](O)[C@@H]1O	0.27
OC[C@H]1O[C@H](O[C@H]2O[C@H](CO)[C@@H](O[C@H]3O[C@H](CO)[C@@H](O[C@H]4O[C@H](CO)[C@@H](O[C@H]5O[C@H](CO)[C@@H](O)[C@H](O)[C@H]5O)[C@H](O)[C@H]4O)[C@H](O)[C@H]3O)[C@H](O)[C@H]2O)[C@H](O)[C@@H](O)[C@@H]1O	0.10

Here is another compound to look at.
Challenge: Provide one value: measured DE of `OC[C@H]1O[C@H](O[C@H]2O[C@H](CO)[C@@H](O[C@H]3O[C@H](CO)[C@@H](O)[C@H](O)[C@H]3O)[C@H](O)[C@H]2O)[C@H](O)[C@@H](O)[C@@H]1O`
Response given: 0.83
